# credit: ChEMBL document CHEMBL2218924

assayedTarget: Focal adhesion kinase 1 (Homo sapiens) (UniProt Q05397)
Sequence (Q05397 2-1052 limits assumed): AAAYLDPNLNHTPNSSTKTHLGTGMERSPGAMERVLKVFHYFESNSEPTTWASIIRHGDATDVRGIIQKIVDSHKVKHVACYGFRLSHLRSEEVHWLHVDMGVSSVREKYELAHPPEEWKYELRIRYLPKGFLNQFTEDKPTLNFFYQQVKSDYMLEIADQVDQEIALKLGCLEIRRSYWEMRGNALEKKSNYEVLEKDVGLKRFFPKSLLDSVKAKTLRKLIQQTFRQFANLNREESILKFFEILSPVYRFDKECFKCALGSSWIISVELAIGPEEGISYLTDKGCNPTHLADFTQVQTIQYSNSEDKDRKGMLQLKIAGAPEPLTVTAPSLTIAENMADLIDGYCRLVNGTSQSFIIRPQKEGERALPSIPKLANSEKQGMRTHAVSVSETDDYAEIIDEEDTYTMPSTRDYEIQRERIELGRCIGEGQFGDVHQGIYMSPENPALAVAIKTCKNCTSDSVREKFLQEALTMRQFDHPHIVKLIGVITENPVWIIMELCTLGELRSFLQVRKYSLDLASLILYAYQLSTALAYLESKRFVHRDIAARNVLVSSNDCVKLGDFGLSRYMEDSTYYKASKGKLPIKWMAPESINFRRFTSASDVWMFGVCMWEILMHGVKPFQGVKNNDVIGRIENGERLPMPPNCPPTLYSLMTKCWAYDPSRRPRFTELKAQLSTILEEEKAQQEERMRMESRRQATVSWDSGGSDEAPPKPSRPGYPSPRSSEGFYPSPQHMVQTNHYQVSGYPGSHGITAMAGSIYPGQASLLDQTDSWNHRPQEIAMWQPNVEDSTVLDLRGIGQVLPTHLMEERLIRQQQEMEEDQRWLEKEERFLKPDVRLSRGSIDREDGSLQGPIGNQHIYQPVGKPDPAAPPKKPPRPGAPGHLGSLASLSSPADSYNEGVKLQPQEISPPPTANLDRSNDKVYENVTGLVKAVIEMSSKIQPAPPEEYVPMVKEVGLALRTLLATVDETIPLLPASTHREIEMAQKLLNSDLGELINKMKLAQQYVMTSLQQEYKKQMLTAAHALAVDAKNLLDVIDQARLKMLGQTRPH
cond: at 10 µM
residual activity less than 70% is 1; residual activity greater than or equal to 70% is 0.

Some entries whose results are on file:
{"inputSmiles": "CCOC(=O)c1c(C)[nH]c(/C=C2\\C(=O)Nc3ccccc32)c1C", "qualitativeLabel": 0}
{"inputSmiles": "CC(C)c1nn(-c2c(Cl)cccc2Cl)c2nc(Cc3ccc(OCCO)cc3)[nH]c(=O)c12", "qualitativeLabel": 1}
{"inputSmiles": "CCCCc1c(-c2ccc(OC)cc2)[nH]c2nccnc12", "qualitativeLabel": 1}
{"inputSmiles": "COc1cc2nccc(Oc3ccc(NC(=S)NC(=O)c4ccccc4C)cc3)c2cc1OC", "qualitativeLabel": 1}
{"inputSmiles": "NCCNc1ncc(C(N)=O)c(Nc2cccc(C(F)(F)F)c2)n1", "qualitativeLabel": 1}
{"inputSmiles": "CC(C)[C@H](CO)Nc1nc(Nc2cc(N)cc(Cl)c2)c2ncn(C(C)C)c2n1", "qualitativeLabel": 1}

Lab note: residual activity threshold 70%. Does this compound come in strictly under it? "O=C(c1ccccc1)c1ccc(N2CCOCC2)cc1O"
0

Lab note: residual activity threshold 70%. Does this compound come in strictly under it? "O=c1cc(N2CCNCC2)oc2c(-c3ccccc3)cccc12"
0

Lab note: residual activity threshold 70%. Does this compound come in strictly under it? "COc1ccc(Cl)cc1NC(=O)Nc1cc(C)nc2ccccc12"
1

Lab note: residual activity threshold 70%. Does this compound come in strictly under it? "CC(C)(C)n1nc(Cc2cccc3ccccc23)c2c(N)ncnc21"
0

Lab note: residual activity threshold 70%. Does this compound come in strictly under it? "Nc1n[nH]c2nc3ccccc3nc12"
0
